Test system: Enterococcus hirae ATCC 10541
Assay: Minimum inhibitory concentration (MIC), further microorganisms
Assay type: cell-based
Details: Table 8; * = significant inhibition of growth, but not complete inhibition
Experimental: Determination of the Minimum Inhibitory Concentration (MIC Value) in Microtitre Plates Casein-soybean flour-peptone broth for preparation of pre-cultures of test bacteria and yeast. Mycological slant agar for the pre-culture of moulds The test substances are pre-dissolved in dimethyl sulfoxide (DMSO) and tested in a dilution series of 1:2. […] After incubation, the growth is determined on the basis of the turbidity of the test batches (optical density) at 620 nm in a microplate reader. […]
assay-metric: Minimum inhibitory concentration (MIC) Enterococcus hirae ATCC 10541 (µg/mL)
One number for each entry, in µg/mL.

Solved cases below.
1. CCCCCCCCCCNc1nc(-c2ccccn2)nc(C)c1CC [compound 11] = 7.5
2. Cc1cc(NCCCCCCCCCCCCN)nc(-c2ccccn2)n1 [compound 19] = 60
3. CC(C)c1cc(NCCCCCCCCCCCCN)nc(-c2ccccn2)n1 [compound 43] = 30
4. CCCCCCCCCCCCCCCNc1cc(C)nc(-c2ccccn2)n1 [compound 93] = 15
5. CCCCCCCCNc1nc(-c2ccccn2)nc(C)c1C(C)C [compound 69] = 3.75

Okay, here is my list. What is Minimum inhibitory concentration (MIC) Enterococcus hirae ATCC 10541 for each of these?
1. CCCCCCCCCCCCNc1cc(C(C)(C)C)nc(-c2ccccn2)n1 [compound 60]
2. CCCCCCCCCCCNc1cc(C)nc(-c2ccccn2)n1 [compound 92]
3. CCCCCCCCCCNc1cc(C)nc(-c2ccccn2)n1 [compound 23]
4. CCCCCCCCCNc1cc(C(F)(F)F)nc(-c2ccccn2)n1 [compound 34]
5. CC(C)(C)c1cc(NCCc2ccccc2)nc(-c2ccccn2)n1 [compound 63]

result:
1. 7.5
2. 3.75
3. 3.75
4. 60
5. 30

---

Record form. Attribute: Minimum inhibitory concentration (MIC) S. hominis. Fill in for each entry.
Test system: Staphylococcus hominis DMS 20328
Assay: Minimum inhibitory concentration (MIC) in microtitre plates
Format: cell-based
Conditions: Table 7; 48 hours at 37° C.; MIC = ≦20% growth compared to control
Protocol: Determination of the Minimum Inhibitory Concentration (MIC Value) in Microtitre Plates Casein-soybean flour-peptone broth for preparation of pre-cultures of test bacteria and yeast. Mycological slant agar for the pre-culture of moulds Examples of Test Organisms: […] After incubation, the growth is determined on the basis of the turbidity of the test batches (optical density) at 620 nm in a microplate reader. […]
Answers are plain numbers, in µg/mL.

As a guide, the following entries are already answered.
1) CCCCCCCCCCCCCCCNc1cc(C(F)(F)F)nc(-c2ccccn2)n1 [compound 96] = 120
2) CCCCCCCNc1cc(CCOC)nc(-c2ccccn2)n1 [compound 80] = 30
3) Cc1nc(-c2ccccn2)nc(NC2CCCCC2)c1C(C)C [compound 74] = 60
4) NCCCCCCCCCNc1cc(C(F)(F)F)nc(-c2ccccn2)n1 [compound 30] = 120
5) CCCCCCCCCCNc1cc(CCOC)nc(-c2ccccn2)n1 [compound 83] = 7.5

Give Minimum inhibitory concentration (MIC) S. hominis for each of the items listed below.
1. COCCc1cc(NCCCCCCCCCCCCN)nc(-c2ccccn2)n1 [compound 79]
2. FC(F)(F)c1cc(NCCc2ccccc2)nc(-c2ccccn2)n1 [compound 39]
3. CCc1c(C)nc(-c2ccccn2)nc1NCc1ccccc1 [compound 88]

result:
10
30
120

FYI, the data here is from patent US7015228B2.
